These data points were gathered from paper PMC4203516.

Assay: HCQ whole blood population pharmacokinetics
Assay type: in vivo, human
Conditions: human, whole blood, po
Measure: Vd/F

Enquiry: Find the measured Vd/F of CCN(CCO)CCCC(C)Nc1ccnc2cc(Cl)ccc12 (stereo not shown) [HCQ, hydroxychloroquine] and report it.
Return: 865 L
